assay.name: Pharmacokinetic profiles
Format: in vivo
condition.description: SD, rat, serum, po, 10 mg/kg, SD rats, PO 10 mg/kg, 0.25 h; read-out: Con. (individual rats NO.1-3)
endpoint: concentration at 0.25 h

Give concentration at 0.25 h for CCN1CCN(C(=O)c2ccc(Nc3ncc(F)c(-c4ccc5nc(N(C)C)sc5c4)n3)nc2)CC1
90.7 ng/mL

====

assay.name: Pharmacokinetic profiles
Assay type: in vivo
condition.description: SD, rat, serum, iv, 1 mg/kg, SD rats, IV 1 mg/kg, 2 h; read-out: Con. (individual rats NO.1-3)
endpoint: concentration at 2 h (ng/mL)
// units = ng/mL; emit number, no label

Using the record for CCN1CCN(C(=O)c2ccc(Nc3ncc(F)c(-c4ccc5nc(N(C)C)sc5c4)n3)nc2)CC1 [YK-2-69] , state its measured concentration at 2 h.
209
